Field: GI50. Provide a value for each of the molecules that follow.
tested on: NCI-H226; assay: NCI tumour cell line growth inhibition, 48 h
Calls of active or inactive are those of the source. Rule as the data show it: active = GI50 up to about 1.1 µM and inactive = higher.

Query Cc1nnc(N/N=C2\C(=O)Nc3ccccc32)n1N yields GI50 of > 100 µM (inactive)

Query O=C1Nc2ccccc2/C1=N/Nc1nc(-c2ccc(Cl)c(Cl)c2)cs1 yields GI50 of > 100 µM (inactive)

Query CC(C)(C)OC(=O)NCC(=O)N1CCCN(C(=O)CNC(=O)OC(C)(C)C)CC1 yields GI50 of > 100 µM (inactive)

Query COc1ccccc1/C=C1\C(=O)N(C(=O)c2ccc(NC(C)=O)cc2)N=C1C yields GI50 of > 100 µM (inactive)

Query COc1cccc(C(C#N)NNC(=O)c2c(Cl)c(Cl)c(Cl)c(Cl)c2-c2nc3cc(C(=O)c4ccccc4)ccc3[nH]2)c1O (stereo unspecified) yields GI50 of 3 µM (inactive)

Query O=C(NCCCNCCCNC(=O)c1cc(-c2ccccc2)nc2ccccc12)c1cc(-c2ccccc2)nc2ccccc12 yields GI50 of 1.69 µM (inactive)

Query Cc1cc2ncn(CC(=O)O)c2cc1C yields GI50 of > 100 µM (inactive)

Query C1C2CC3CC1CC(Nc1nc(NC45CC6CC(CC(C6)C4)C5)nc(NC45CC6CC(CC(C6)C4)C5)n1)(C2)C3 yields GI50 of > 100 µM (inactive)

Query O=C1Nc2ccccc2/C1=N/Nc1ccccc1[N+](=O)[O-] yields GI50 of 1.67 µM (inactive)

Query CC1C=CC(C(N)C(=O)O)O1 (stereo unspecified) yields GI50 of > 100 µM (inactive)

Query O=C(c1ccc(F)cc1)c1cccc(C(=O)c2ccc(F)cc2)n1 yields GI50 of > 45.4 µM (inactive)

Query CCOc1cccc(/C=N/N=C2\C(=O)Nc3c(Cl)cc(Cl)cc32)c1O yields GI50 of > 100 µM (inactive)

Query O=[N+]([O-])c1nccn1CC1OC(n2ccnc2[N+](=O)[O-])C(O)C(O)C1O (stereo unspecified) yields GI50 of > 100 µM (inactive)

Query CCn1c(SCC(=O)NNC(=S)NC)nc2ccccc2c1=O yields GI50 of > 100 µM (inactive)

Query O=c1ccn(C2OC(CN(O)CCC3C(O)C(CO)OC3n3ccc(=O)[nH]c3=O)C(O)C2O)c(=O)[nH]1 (stereo unspecified) yields GI50 of > 100 µM (inactive)

Query O=C(CC1C(=O)Nc2ccccc2[S+]1[O-])Nc1cc(Cl)ccc1Cl (stereo unspecified) yields GI50 of > 100 µM (inactive)

Query CCOC(=O)CSc1nc(-c2ccc(OC)cc2)c(C#N)c(=O)[nH]1 yields GI50 of > 100 µM (inactive)

Query CC12C(=O)CC(CC1=O)C2(C)C yields GI50 of > 100 µM (inactive)

Query CN1CCCNCCN(CCc2ccccn2)CCCN(C)CC1 yields GI50 of > 100 µM (inactive)

Query CCSc1nc(COC(=O)NC)c(COC(=O)NC)n1C yields GI50 of > 100 µM (inactive)

Query COc1cc2c(cc1O)C(Cc1ccc(OCc3ccccc3)c(OCc3ccccc3)c1)N(C(=O)NCCc1ccccc1)CC2 (stereo unspecified) yields GI50 of > 100 µM (inactive)

Query COC1CC(OC2C(C)OC(OC3C(C)OC(OC4C(O)CC(O[C@H]5CC[C@@]6(C)C(=CC[C@]7(O)[C@@H]6C[C@@H](OC(C)=O)[C@@]6(C)[C@]7(O)CC[C@@]6(O)C(C)=O)C5)OC4C)CC3OC)CC2OC)OC(C)C1O (stereo partly specified) yields GI50 of > 12.5 µM (inactive)

Query CC(C)CC(NC(=O)C(COc1ccc([N+](=O)[O-])cc1)Cc1ccccc1)C(=O)Nc1ccccc1 (stereo unspecified) yields GI50 of 3.44 µM (inactive)

Query Cc1cccc2c1CC1(C2)Cc2c(C)cccc2C1=O (stereo unspecified) yields GI50 of 26.8 µM (inactive)

Query C=C1C(=O)O[C@H]2[C@H](OC(C)=O)[C@@H](C)CCC/C(C)=C/CC[C@@]3(C)O[C@@H]3C[C@@H]12 yields GI50 of 1.5 µM (inactive)

Query COC(=O)CCC(=O)Nc1cc(C)ccc1C yields GI50 of > 100 µM (inactive)

Query O=C1C=CC2OC(c3ccccc3)C(O)C2O1 (stereo unspecified) yields GI50 of 1.48 µM (inactive)

Query COc1ccc(C(c2ccc(OC)cc2)N2C(=O)CCC2C(=O)O)cc1 (stereo unspecified) yields GI50 of > 100 µM (inactive)

Query O=C1N[C@@H]2c3c(Br)sc(Br)c3C(=O)[C@@H]2N1 yields GI50 of 29.6 µM (inactive)

Query CCn1c(SCC(=O)N/N=C2\SCC(=O)N2c2ccc(C)cc2)nc2ccccc2c1=O yields GI50 of 23.8 µM (inactive)

Query CN1CCOC(C(NC(=O)c2ccccc2)c2ccccc2)C1=O (stereo unspecified) yields GI50 of > 100 µM (inactive)
